Hey, just so you know, these numbers are from patent US20200247800A1.

study-system: human NOX4 (Homo sapiens)
Construct: expressed in transfected cells; membrane fraction used
assay-protocol: Cell free membrane based in vitro NOX4 assay: H2O2 production by membranes expressing human NOX4, measured with Amplex Red
Type: biochemical
recorded-conditions: 1.0 μM compound, read-out: Percentage inhibition at 1.0 μM
Property: inhibition at 1 µM; scope: individual molecules

Consider the following illustrative entries.
Cc1cc2c(=O)c(O)c(-c3ccc(F)c(C(F)(F)F)c3)[nH]c2s1 | 100%
CCn1nc(C)c2c(=O)c(O)c(-c3cc(CNC(=O)C(C)(C)C)ccc3F)[nH]c21 | 92.6%
Cc1nn(Cc2ccc(F)cc2)c2[nH]c(-c3c(F)cccc3F)c(O)c(=O)c12 | 80.2%
COc1c(-c2ccccc2Cl)[nH]c2c(c(C)nn2C)c1=O | 32.8%
CCc1nn(C)c2[nH]c(-c3ccc(OC)cc3F)c(O)c(=O)c12 | 82.2%
Cc1cc2c(=O)c(O)c(-c3ccccc3Cl)[nH]c2s1 | 77%
COc1ccc(-c2[nH]c3c(c(C)nn3-c3ccc(F)cc3)c(=O)c2O)c(F)c1 | 87.5%
Cn1nc(CN2CCN(CC(F)(F)F)CC2)c2c(=O)c(O)c(-c3c(F)cccc3F)[nH]c21 | 100%
Cc1ccc(-c2[nH]c3c(c(C)nn3C)c(=O)c2O)cc1C | 50.1%
CC(C)N1CCN(Cc2nn(C)c3[nH]c(-c4c(F)cccc4F)c(O)c(=O)c23)C[C@H]1C | 89.7%

// recorded inhibition at 1 µM for Cc1nn(CCN2CCN(C)CC2)c2[nH]c(-c3c(F)cccc3F)c(O)c(=O)c12 : 83.7%

Documented inhibition at 1 µM of Cc1nn(C)c2[nH]c(-c3ccc(F)c(F)c3)c(O)c(=O)c12 : 63.9%

Reported inhibition at 1 µM ( Cc1nn(C2CC2)c2[nH]c(-c3ccccc3Cl)c(O)c(=O)c12 ) = 58.4%

inhibition at 1 µM reading for Cn1nc2[nH]c(-c3ccccc3Cl)c(O)c(=O)c2c1-c1ccc(F)cc1 : 36.7%

Lab note: Cc1nn(C)c2[nH]c(-c3cc(Cl)ccc3Cl)c(O)c(=O)c12 gave inhibition at 1 µM of 95.9%

So for COc1ccc(-n2nc(C)c3c(=O)c(O)c(-c4c(F)cccc4F)[nH]c32)cc1 , the logged inhibition at 1 µM turned out to be 89.4%

// field: inhibition at 1 µM; key: O=c1c(O)c(-c2ccccc2Cl)[nH]c2c1c(C(F)(F)F)nn2C1CCOCC1 ; value = 69.6%

Form: molecule = Cc1nn(C)c2[nH]c(-c3ccc(F)cc3F)c(O)c(=O)c12 ; inhibition at 1 µM = 100%

---

study-system: human NOX4 (Homo sapiens, UniProt Q9NPH5)
Construct: expressed in transfected cells; membrane fraction used
Sequence (Q9NPH5 whole entry): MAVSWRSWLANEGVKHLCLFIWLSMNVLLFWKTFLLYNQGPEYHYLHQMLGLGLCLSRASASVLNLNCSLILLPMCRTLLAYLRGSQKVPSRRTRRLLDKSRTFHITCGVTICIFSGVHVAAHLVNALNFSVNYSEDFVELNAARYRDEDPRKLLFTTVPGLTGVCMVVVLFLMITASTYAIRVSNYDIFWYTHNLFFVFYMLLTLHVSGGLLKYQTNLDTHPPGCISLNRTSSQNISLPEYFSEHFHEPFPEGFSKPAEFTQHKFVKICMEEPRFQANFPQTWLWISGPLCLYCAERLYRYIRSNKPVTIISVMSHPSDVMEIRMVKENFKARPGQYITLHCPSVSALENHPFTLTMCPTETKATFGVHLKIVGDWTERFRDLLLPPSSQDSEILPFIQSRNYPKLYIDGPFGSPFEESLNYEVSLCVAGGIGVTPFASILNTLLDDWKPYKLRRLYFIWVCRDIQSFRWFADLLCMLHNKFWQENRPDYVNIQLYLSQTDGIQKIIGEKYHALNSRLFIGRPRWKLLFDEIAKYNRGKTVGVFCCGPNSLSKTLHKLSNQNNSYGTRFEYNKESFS
Sequence (P13498 whole entry partner): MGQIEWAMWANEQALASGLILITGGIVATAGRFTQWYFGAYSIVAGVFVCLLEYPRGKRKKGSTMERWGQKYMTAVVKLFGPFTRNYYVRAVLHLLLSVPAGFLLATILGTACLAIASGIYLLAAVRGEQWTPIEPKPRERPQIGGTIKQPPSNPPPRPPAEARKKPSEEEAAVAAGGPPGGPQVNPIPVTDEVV
assay-protocol: Cell free membrane based in vitro NOX4 assay: H2O2 production by membranes expressing human NOX4, measured with Amplex Red
Format: biochemical
recorded-conditions: 1.0 μM compound, read-out: Percentage inhibition at 1.0 μM
Recorded inhibition at 1 µM values for a group of compounds are listed next.
Number in %, nothing else.

Documented inhibition at 1 µM of CCn1nc2c(=O)c(O)c(-c3ccccc3Cl)oc2c1C [Example 229] : 4.45

The recorded inhibition at 1 µM for Cn1nc(CN2CCOCC2)c2c(=O)c(O)c(-c3ccccc3Cl)[nH]c21 [Example 199] is 86.8

Entry under test: CCCn1nc(C)c2c(=O)c(O)c(-c3c(F)cccc3F)[nH]c21 [Example 79] . Its inhibition at 1 µM was 78.4

inhibition at 1 µM recorded for this compound, CC(C)N1CCN(Cc2nn(C)c3[nH]c(-c4c(F)cccc4F)c(O)c(=O)c23)C[C@@H]1C [Example 222] , is 86.2

Measured inhibition at 1 µM of CCc1nn(CCN2CCC(F)(F)CC2)c2[nH]c(-c3c(F)cccc3F)c(O)c(=O)c12 [Example 205] : 95.9

The compound identified as CCc1nn(CCCN2CCOCC2)c2[nH]c(-c3cccc(C(F)(F)F)c3F)c(O)c(=O)c12 [Example 174] registered its inhibition at 1 µM at 85.6

Reported inhibition at 1 µM of O=c1c(O)c(-c2c(F)cccc2F)[nH]c2c1cnn2-c1ccc(F)cc1 [Example 9] : 81.7

CCc1nn(CCN2CCN(CC)CC2)c2[nH]c(-c3c(F)cccc3F)c(O)c(=O)c12 [Example 172] yielded inhibition at 1 µM of 80.9
